Can you tell me cytotoxicity at 70.5 h for the items I'm about to list?
assay: Human HepG2 cell viability assay in 384 well format; format: toxicity, cell-based; set-up: dose 125 nL, time 70.5 hour; concentration not given beside the values; conditions: HepG2 cells, read-out: Inhibition

// solved cases for cytotoxicity at 70.5 h follow
COMPOUND | cytotoxicity at 70.5 h
CN(C)C(=O)N1CCn2cc(CNC(=O)CC3CC3)nc2C1 | -0.867%
Cc1noc([C@@H]2CCCN2C(=O)C2CCN(C(=O)C3CCC3)CC2)n1 | 10.6%
CC(C)(C)c1cc(=O)[nH]c(C2(N)CCCCC2)n1 | -4.98%

Give cytotoxicity at 70.5 h for each listed item.
1. Cc1nc(C(=O)N(C)C)nn1-c1ccccc1C(C)C
2. NC(=O)Cn1ccc(NC(=O)C2(c3cccc(F)c3)CCC2)n1
3. CCc1ccsc1C(=O)NC(Cc1ccccc1)C(N)=O (stereo unspecified)
4. COc1ccc(NC(=O)CSc2ccc3nncn3n2)c(OC)c1
5. CNC(=O)[C@@H]1C[C@H](N)CN1Cc1cc2cc(OC)ccc2nc1O
6. O=C(c1ccsc1)N1CC(c2nc(-c3ccc[nH]c3=O)no2)C1

["0.366%", "19.5%", "-6.72%", "-15.9%", "-8.56%", "12.8%"]

----------
test: Human HepG2 cell viability assay in 384 well format; format: toxicity, cell-based; design: dose 125 nL, time 70.5 hour; concentration not given beside the values; details: HepG2 cells, read-out: Inhibition
Can you tell me cytotoxicity at 70.5 h for the items I'm about to list?

// solved cases for cytotoxicity at 70.5 h follow
COMPOUND | cytotoxicity at 70.5 h
COc1ccc(C(C)Nc2ncnc3c2NC(=O)CN3)cc1 (stereo not given) | -14.1%
COc1ccc(-c2nccnc2C2CCN(C(C)=O)CC2)cc1 | 19.6%

Give cytotoxicity at 70.5 h for each listed item.
1. CSCCC1c2nc[nH]c2CCN1Cc1ccccc1C(F)(F)F (stereo not given)
2. O=C(NCCOCCO)c1cnc(-c2ccccc2)nc1O
3. O=C(NCCN1CCCC1)Nc1cc(C(=O)N2CCOCC2)ccc1Cl
4. CNC(=O)CCOC(=O)c1cccc(-n2ccc(C(F)(F)F)n2)c1
5. CC(C)c1noc(C(C)N2CCN(CCc3ccncc3)CC2)n1 (stereo not given)
6. COCCCNC(=O)Cn1c(-c2cccc(Cl)c2)nc(C)cc1=O

["0.321%", "-7.84%", "-8.22%", "0.427%", "-16.3%", "2.43%"]

Give cytotoxicity at 70.5 h for each listed item.
1. COc1ccnc(N2CCN(Cc3ncc(C(C)(C)C)o3)CC2)n1
2. O=C(NC1CC1)c1ccnc(-c2cc(NCCO)nc3[nH]ccc23)c1

1: 6.11%; 2: 21.9%

Give cytotoxicity at 70.5 h for each listed item.
1. Cc1ccccc1CC1(C(=O)O)CCCN(c2ncnc3[nH]ccc23)C1 (stereo not given)
2. O=C(CCCc1nc(-c2ccccc2)no1)N1CCN(CCO)CC1
3. CNC(=O)Cc1noc(-c2cc3c(s2)CCCC3)n1
4. CCN1CCN(C(=O)c2cccc(CN3CCOCC3)c2)CC1
5. CN(C)Cc1cc(C2CCCN(S(=O)(=O)c3cccc(Cl)c3)C2)nn1C (stereo not given)
6. O=C(C[C@H]1[C@H]2CN(Cc3ccsc3)C[C@@H]12)N1CCCC1

-5.97%
17.6%
-8.17%
-5.52%
-14.6%
-1.9%

Give cytotoxicity at 70.5 h for each listed item.
1. O=C(CSC1=NS(=O)(=O)c2cc(F)ccc2N1)Nc1ccc(Cl)cc1
2. CN(CC1CC1)c1ccc2ccc(C(=O)NCCN3CCOCC3)cn12
3. Cc1cccc(C(=O)N2CCN(S(C)(=O)=O)[C@@H](C)C2)c1C

1: 22.3%; 2: -5.52%; 3: -0.781%

----------
test: Human HepG2 cell viability assay in 384 well format; assay type: toxicity, cell-based; design: dose 125 nL, time 70.5 hour; concentration not given beside the values; conditions: HepG2 cells, read-out: Inhibition
Can you tell me cytotoxicity at 70.5 h for the items I'm about to list?
Give bare numbers, in %.

// solved cases for cytotoxicity at 70.5 h follow
COMPOUND | OBS VALUE
Cc1cc(C(F)(F)F)nc(CCNC(C)Cn2nc(C)cc2C)n1 (centres undefined) | -16.8
COC1CC2(CCN(Cc3ccc4c(c3)OCO4)CC2)C1 | -12.6
CC(C)C1CN(C(=O)c2ccncc2)CCS1 (centres undefined) | -1.14

Note: attention shifts to another entry.
Can you share its cytotoxicity at 70.5 h? I mean this compound: O=C(C1CCC2(CCN(CC3CCOCC3)CC2)O1)N1CCCC1 (centres undefined)
4.83

----------
Can you tell me cytotoxicity at 70.5 h for the items I'm about to list?
experiment: Human HepG2 cell viability assay in 384 well format; assay type: toxicity, cell-based; set-up: dose 125 nL, time 70.5 hour; concentration not given beside the values; conditions: HepG2 cells, read-out: Inhibition
Give bare numbers, in %.

// solved cases for cytotoxicity at 70.5 h follow
COMPOUND | UNIT DESCRIPTOR | cytotoxicity at 70.5 h
CC(C)C(=O)N1CCC2(CC1)NC(=O)[C@H]1CN(C(=O)N(C)C)C[C@H]12 | % | -11.8
Cc1cc(C(=O)N2CCCC2c2noc(C(C)C)n2)c(C)o1 (stereo unspecified) | % | -3.94
c1ccc(CNc2ncc(CN3CC[C@H]4CC[C@@H](C3)N4)cn2)cc1 | % | 18.2
Cn1nc(CNC(=O)C2CCC2)cc1C1CC1 | % | -4.15
O=C(c1cccnc1)N1CCC2(CC1)CNc1c(F)cccc12 | % | -1.96

Note: attention shifts to another entry.
Can you share its cytotoxicity at 70.5 h? I mean this compound: `O=C(c1cc(Cn2ccc3ccccc32)[nH]n1)N1CCC[C@H]1CO`
-0.0597

----------
experiment: Human HepG2 cell viability assay in 384 well format; format: toxicity, cell-based; set-up: dose 125 nL, time 70.5 hour; concentration not given beside the values; settings: HepG2 cells, read-out: Inhibition
PROPERTY LABEL: cytotoxicity at 70.5 h

// solved cases for cytotoxicity at 70.5 h follow
MOLECULE | cytotoxicity at 70.5 h
c1cnn(C2CN(c3nc(-c4ccncc4)nc4c3CCC4)C2)c1 | -1.27%
COc1cccc(N2CCC(CNC(=O)N(C)Cc3ccco3)C2)c1 (centres undefined) | -3.66%
Cc1cc(C)n(-c2ccc(CNCc3ccc(C)o3)cn2)n1 | -7.08%
CCSc1cc(C(=O)NCC(C)(C)N(C)C)ccn1 | -90.6%
O=C(Nc1ccc(S(=O)(=O)Nc2c(F)cccc2F)cc1)N1CCCC1 | -6.84%

Give cytotoxicity at 70.5 h for each listed item.
1. Fc1ccc(Cn2ncc3c2CN(c2ncccn2)C3)cc1
2. COc1ccc(CCN2C(=O)O[C@@H]3CN(C4CCSCC4)C[C@@H]32)cc1
3. O=S(=O)(c1ccccc1)N1CCCC(c2nccs2)C1 (centres undefined)
4. CNS(=O)(=O)Cc1ccc(CNC(=O)Nc2cn[nH]c2)cc1

1: -0.987%; 2: -6.37%; 3: -2%; 4: -11.3%

----------
assay: Human HepG2 cell viability assay in 384 well format; assay type: toxicity, cell-based; design: dose 125 nL, time 70.5 hour; concentration not given beside the values; conditions: HepG2 cells, read-out: Inhibition
PROPERTY LABEL: cytotoxicity at 70.5 h (%)
Numbers only, in %.

// solved cases for cytotoxicity at 70.5 h follow
MOLECULE | OBS VALUE
CN(C)C(=O)c1nn(C)c2c1CN(Cc1cccs1)C2 | -9.29
COc1ccccc1-c1ccnc2nc(N3CCCCC3)[nH]c(=O)c12 | -15.7
O=C(c1ccccc1)N1CC[C@H]2C[C@@H](c3nnc(C4CC4)o3)O[C@@H]2C1 | -4.88
CC(=O)c1cccc(OCc2cc(C(=O)N3CCCCO3)n[nH]2)c1 | -15.4
CN1CCN(Cc2ccc(Cl)cc2)CC1C(=O)O (centres undefined) | -6.51

Give cytotoxicity at 70.5 h for each listed item.
1. O=C(c1cnccn1)N1CC[C@H]2[C@H]1CCN2S(=O)(=O)C1CC1
2. O=C(NCc1nncn1C1CCCCC1)C1COc2ccccc2O1 (centres undefined)
3. CC(C)c1cc(CNC(=O)Nc2cc(F)cc(N3CCCC3)c2)on1
4. CCOc1cccc(C(=O)N2CCCn3nc(CCC(=O)O)cc3C2)c1
5. Cc1ccc(N2C(=O)N[C@@H]3CCN(C(=O)C4CC4)[C@@H]3C2=O)cc1
6. CC(=O)N1CCN(C(=O)C(C)Nc2ccc3ncsc3c2)CC1 (centres undefined)

1. -4.25
2. -7.82
3. 17.1
4. -5.68
5. -15.3
6. 0.285

Give cytotoxicity at 70.5 h for each listed item.
1. CC(C)c1nsc(NC2CC(=O)N(C(C)(C)C)C2)n1 (centres undefined)
2. CCOC(=O)C1CCCCN1Cc1c[nH]nc1-c1ccc(F)cc1F (centres undefined)
3. Cc1ccc(CN2C[C@@H](c3ccccc3)[C@@]3(CCNC3=O)C2)o1

-8.61
-7.54
2.86
